Every entry's value here was drawn from PubChem BioAssay AID686971.

assay: qHTS for induction of synthetic lethality in tumor cells producing 2HG: qHTS for the HT-1080-IDH1KD cell line; conditions: HT-1080 IDH1 knockdown viability, ATP luminescence, 48 h; series mostly up to 46.1 µM
The whole screen tested about 360,000 compounds, of which about 7,500 (2.1%) were called active. Not shown: some 8% with an inconclusive outcome. Calls come from the whole dose curve; as a rule, active = well fitted cell-killing curve with a large enough effect; inconclusive = small, poorly fitted or top-dose-only effect, or effect the other way, or another doubt; inactive = no such curve, though single readings can be large or run the other way. Shown is part of a subset that was picked to be rich in actives.
# valid calls are true (1) = active, false (0) = inactive; nothing else

Previously resolved entries follow.
{"Compound": "C/C(=N\\NC(=S)NCc1ccccc1)c1ccc(Cl)cc1", "Group Label": "false (0)"}
{"Compound": "COc1ccc(CNc2ncnc3ccccc23)cc1", "Group Label": "false (0)"}
{"Compound": "Cc1oc2c(c1C(=O)N1CCOCC1)C(=O)c1ccccc1C2=O", "Group Label": "true (1)"}

**Query** Which outcome did this test record for the compound NC(=O)N1CCCC1C(=O)Nc1ccc(Cl)c(Cl)c1 (centres undefined) ?
**Result** false (0)

**Query** Another: COC(=O)[C@@]12C[C@@H](CC(=O)N3CCCCC3)C(=O)N(Cc3ccc4c(c3)OCO4)C1=CCC(C)(C)C2
**Result** false (0)

**Query** Also need O=C(NCc1cccnc1)c1cc(C2CCCN(C(=O)CCCc3ccccc3)C2)on1 (centres undefined) , thanks.
**Result** false (0)

**Query** Next record, please: c1coc(CNc2ncnc3ccccc23)c1
**Result** true (1)

**Query** What do you get for CN(CCO)C(=O)c1nc[nH]c1C(=O)N(C)Cc1ccccc1 ?
**Result** false (0)

**Query** Next compound: O=C(Nc1ccc(Cl)cc1)c1csc([C@@H]2O[C@H](CO)[C@H](O)[C@H](O)[C@H]2O)n1
**Result** false (0)

**Query** Another compound: CC(C)c1ccc(NC(=O)[C@@H](NC(=O)N2CC(=O)Nc3ccccc32)C(C)C)cc1
**Result** true (1)

**Query** Another compound: Cc1nnc(SC(C)C(=O)c2c[nH]c3ccccc23)n1C1CC1 (centres undefined)
**Result** false (0)

**Query** Another compound: COc1cc(OC)c2c(-c3cccc(-c4cccc(N)c4)c3)cc(=O)oc2c1
**Result** true (1)

**Query** Same read-out for NS(=O)(=O)c1ccc(CCNS(=O)(=O)c2cccc3cccnc23)cc1 ?
**Result** false (0)

**Query** Try Cc1ccc2cccc([N+](=O)[O-])c2n1 next.
**Result** false (0)

**Query** One more compound: COc1cc2ccccc2cc1C(=O)N1CCOCC1
**Result** false (0)

**Query** Same question, O=C(NC(c1ccc(-c2ccccc2)cc1)c1cnccn1)C1CCN(CCOc2ccc(Cl)cc2Cl)CC1 (centres undefined) this time
**Result** true (1)

**Query** Please do the same for COc1ccc(C(C)C)cc1-c1ccc2nncn2c1 as well.
**Result** false (0)

**Query** Field entry: C/C(=N\NC(=S)NC(C)C)c1ccc(C(C)(C)C)cc1
**Result** true (1)

**Query** Lookup O=[N+]([O-])c1ccc(CN2CC(N3CCC(c4ccccc4)CC3)CS2(=O)=O)cc1 (centres undefined)
**Result** false (0)

====

assay: qHTS for induction of synthetic lethality in tumor cells producing 2HG: qHTS for the HT-1080-IDH1KD cell line; conditions: HT-1080 IDH1 knockdown viability, ATP luminescence, 48 h; series mostly up to 46.1 µM
Among all 360,000 compounds or so, about 7,500 (2.1%) were called active. Not shown: some 8% with an inconclusive outcome. The call rests on the fitted dose curve; in most records, active means well fitted cell-killing curve with a large enough effect; inconclusive means small, poorly fitted or top-dose-only effect, or effect the other way, or another doubt; inactive means no such curve, though single readings can be large or run the other way. The entries come from a sample that favours actives as a whole.
Pick one and only one: active, inactive

{"Compound": "COc1ccccc1N1CCN(C(=O)c2c(-c3c(Cl)cccc3Cl)noc2C)CC1", "Group Label": "inactive"}
{"Compound": "O=C(N=C1SC2CS(=O)(=O)CC2N1Cc1ccccc1)c1ccccc1 (stereo not given)", "Group Label": "inactive"}
{"Compound": "N#Cc1ccc(C(C(=O)NCc2ccccc2)n2c(=O)c(-c3ccco3)nc3ccccc32)cc1 (stereo not given)", "Group Label": "inactive"}
{"Compound": "CCC(C(=O)NCc1ccccc1)n1c(Cc2cc(F)cc(F)c2)nc2ccccc21 (stereo not given)", "Group Label": "inactive"}
{"Compound": "Cc1ccc(NC(=S)N(CCN2CCCCC2)Cc2ccco2)cc1C", "Group Label": "inactive"}
{"Compound": "CCOc1ccccc1CNS(=O)(=O)c1cc(-c2cc(C)no2)ccc1C", "Group Label": "inactive"}
{"Compound": "COc1ccccc1N1CCN(C(=O)c2ccc(Cl)c(S(=O)(=O)N3CCCC3)c2)CC1", "Group Label": "inactive"}
{"Compound": "COc1ccc(-c2c(C#Cc3ccccc3)c3ccccc3n2C)cc1", "Group Label": "inactive"}
{"Compound": "COc1ccc2nc(/N=C(\\N)NC(=O)Nc3ccccc3)nc(C)c2c1", "Group Label": "inactive"}

Here is the next item to consider.
**Query** Called result for COc1ccc(CCNCc2c(-c3ccccc3)n(C)c3ccccc23)cc1
**Result** active

====

test: qHTS for induction of synthetic lethality in tumor cells producing 2HG: qHTS for the HT-1080-IDH1KD cell line; conditions: HT-1080 IDH1 knockdown viability, ATP luminescence, 48 h; series mostly up to 46.1 µM; note: potency is the fitted concentration of half-maximal effect
The whole screen tested about 360,000 compounds, of which about 7,500 (2.1%) were called active. Inconclusive results (about 8%) are left out. The list comes from a sample in which actives are over-represented; it also holds close analogues and randomly drawn compounds.
Property Measured: Potency

Before answering, review these 6 worked examples.
{"Compound": "Cc1nc(N2CCN(c3ccccn3)CC2)c2c(C)c(C(=O)Nc3ccc(F)cc3)sc2n1", "Property Measured": "Potency", "Test Value": "inactive"}
{"Compound": "CCOC(=O)[C@]12CCCC=C1N(CCC1=CCCCC1)C(=O)[C@H](CC(=O)N1CCCCC1)C2", "Property Measured": "Potency", "Test Value": "inactive"}
{"Compound": "O=C(CN1C(=O)NC2(CCc3ccccc32)C1=O)NC1CCCCC1 (configuration not stated)", "Property Measured": "Potency", "Test Value": "inactive"}
{"Compound": "CC(=O)C[C@@H]1OC[C@H](C)N1S(=O)(=O)c1ccc(C)cc1", "Property Measured": "Potency", "Test Value": "inactive"}
{"Compound": "Cc1ccc(CCNC(=O)CN2C(=O)CSc3ccc(S(=O)(=O)N4CCOCC4)cc32)cc1", "Property Measured": "Potency", "Test Value": "inactive"}
{"Compound": "CC(C)OC(=O)CC(=O)CC(O)c1cccc([N+](=O)[O-])c1 (configuration not stated)", "Property Measured": "Potency", "Test Value": "inactive"}

Please find the next compound below.
**Query** May I ask what Potency has been recorded for Cc1nc(N2CCN(c3ccccn3)CC2)c2c(C)c(C(=O)Nc3ccc(F)c(Cl)c3)sc2n1 ?
**Result** inactive

====

Assay: qHTS for induction of synthetic lethality in tumor cells producing 2HG: qHTS for the HT-1080-IDH1KD cell line; note: potency is the fitted concentration of half-maximal effect
Conditions: HT-1080 IDH1 knockdown viability, ATP luminescence, 48 h; series mostly up to 46.1 µM
Text: Unbiased genomic sequencing for 22 glioma genomes found recurrent mutation of IDH1 on chromosome 2q33, a gene encoding the cytosolic isoform of IIDH1 associated with the tri-carboxylic acid cycle (TCA) that catalyzes the oxidative decarboxylation of isocitrate, yielding alpha-ketoglutarate and CO2 via NADP+ to NADPH conversion. […] Concentration-response curves were fitted to the signals arising from the resulting luminescence. […]
The whole screen tested about 360,000 compounds, of which about 7,500 (2.1%) were called active. Another 8% or so got no clear call; they are omitted. Only a selection was taken, and actives are over-represented in it overall.
Property Measured: Potency

Previously resolved entries follow.
{"Compound": "CN(c1ccccc1)S(=O)(=O)c1cc(C(=O)Nc2nc3ccccc3[nH]2)ccc1Cl", "Test Value": "inactive"}
{"Compound": "CC1(C(=O)NS(=O)(=O)c2ccc3ccccc3c2)CCN1C(=O)C1(c2ccc(Cl)cc2)CCC1 (stereo not given)", "Test Value": "inactive"}
{"Compound": "COC(=O)Nc1nc2ccc(Sc3ccccc3)cc2[nH]1", "Test Value": "0.82 µM (active)"}
{"Compound": "COc1cccc(-c2cc3nc(NCCOc4ccccc4Cl)n(C)c(=O)c3s2)c1", "Test Value": "inactive"}
{"Compound": "CCC(C)N(C(=O)CSc1nnnn1-c1ccccc1OC)C1CCS(=O)(=O)C1 (stereo not given)", "Test Value": "inactive"}

Now take the following compound into account.
**Query** For the compound shown here, CCOC(=O)C1CCCN(C(=O)/C=C/c2ccc(OC)cc2)C1 (stereo not given) , give the reported Potency.
**Result** inactive

====

experiment: qHTS for induction of synthetic lethality in tumor cells producing 2HG: qHTS for the HT-1080-IDH1KD cell line; conditions: HT-1080 IDH1 knockdown viability, ATP luminescence, 48 h; series mostly up to 46.1 µM
Out of some 360,000 compounds screened, about 7,500 (2.1%) were called active. Inconclusive results (about 8%) are left out. Calls come from the whole dose curve; as a rule, active = well fitted cell-killing curve with a large enough effect; inconclusive = small, poorly fitted or top-dose-only effect, or effect the other way, or another doubt; inactive = no such curve, though single readings can be large or run the other way. Shown is part of a subset that was picked to be rich in actives.
Answer with one of the outcomes given here: active, inactive

Reference set (3 entries):
{"Compound": "CNS(=O)(=O)c1ccc2c(c1)[nH]c(=S)n2C", "Group Label": "inactive"}
{"Compound": "CCN(CC)CCn1cnc2c1c(=O)[nH]c(=O)n2Cc1ccccc1", "Group Label": "inactive"}
{"Compound": "FC(F)(F)c1cccc(-c2nc3ccccc3n2C(c2ccccc2)c2nc3ccccc3[nH]2)c1 (configuration not stated)", "Group Label": "inactive"}

**Query** Answer briefly: the call reported for CC(C)CCC(=O)Nc1cc(S(=O)(=O)N2CCOCC2)ccc1N1CCCC1 in this assay.
**Result** inactive

**Query** Follow-up item: COCCNc1nc(NCc2ccc(NC(C)=O)cc2)c2sccc2n1
**Result** inactive

**Query** Try this compound next: CC1=CC(C)(C)NC(=S)N1c1ccccc1
**Result** active

**Query** Would you kindly repeat that for Cc1cc(NC(=O)CCC(=O)N(c2ccccc2)C(C(=O)NC2CCCC2)c2ccncc2)no1 (configuration not stated) ?
**Result** inactive

**Query** What would you report for COCCNc1nc(Nc2ccccc2Cl)c2sc(-c3ccccc3)cc2n1 ?
**Result** inactive

**Query** Next record, please: O=C(COC(=O)CCc1c[nH]c2ccccc12)Nc1cccc(Cl)c1
**Result** inactive

**Query** Now the compound CCCNC(=O)c1cc(C2CCCN(C(=O)c3ccc4c(c3)CCO4)C2)on1 (configuration not stated)
**Result** inactive

**Query** Proceed to Cc1cccc(CS(=O)(=O)c2ncc(Cl)c(C(=O)Nc3ccc(F)cc3)n2)c1
**Result** active

**Query** And for N=c1c2c(-c3ccccc3)c(-c3ccccc3)n(Cc3ccccc3)c2ncn1CCCO ?
**Result** active
